Each entry below lists one item and its recorded growth value.
- Tested on: RPMI-8226 leukemia
- Measurement Notes: NCI-60 one-dose screen, 48 h (100 = growth as untreated, 0 = no growth, -100 = all killed)
- Test Context: 10 µM unless noted
About 83,000 compounds went through this panel and 20% of them were active in at least one assay; those are over-represented in the sample as a whole. The source made the active and inactive calls. Rule for the calls: active = growth percent below 10; inactive = the rest.

Compound	growth
CC(/C=N/N=C(N)N)=N/N=C(N)N	95.7% (inactive)
O=[N+]([O-])c1ccccc1N1CCNCC1	118% (inactive)
NC(Cc1ccc2c(c1)OCO2)c1ccc2c(c1)OCO2 (centres undefined)	96.3% (inactive)
Cc1ccc(C[As+](c2ccccc2)(c2ccccc2)c2ccccc2)cc1	-8.65% (active)
CCOc1cc(C=C(C#N)C#N)cc(Br)c1O	105% (inactive)
Nc1nc(N)c(-c2ccc(Cl)c(Cl)c2)c(/C=C/c2ccc(S(=O)(=O)F)cc2)n1	93.1% (inactive)
O=C(O)c1[nH]c(=O)[nH]c(=O)c1F	73.7% (inactive)
CN1CCN(C(=O)COc2ccc(/C=C3\CC4C5CC=C6CC(Cl)CCC6(C)C5CCC4(C)C3=O)cc2)CC1 (centres undefined)	53.5% (inactive)
n1nc(-c2nonc2-c2nn[nH]n2)n[nH]1	96.5% (inactive)
CC1=C(SCCC(=O)OCC(=O)NCCC[Te]c2ccccc2)C(=O)c2ccccc2C1=O	-8.41% (active)
COc1ccc(C2SCC(=O)Nc3c2c(C)nn3-c2nc3ccc(C)cc3s2)cc1O (centres undefined)	38.8% (inactive)
c1ccc(CCN2CCCCC2Cc2ccccc2)cc1 (centres undefined)	107% (inactive)
CC1(CF)NC(=O)NC1=O (centres undefined)	108% (inactive)
NC(=O)OCC(CO)(c1ccccc1)c1ccccc1	98.4% (inactive)
c1ccc2nc(OCCN3CC3)ccc2c1	9.61% (active)
N#C[Se]CCN1C(=O)C2C(C1=O)[C@H]1C=C[C@@H]2S1 (some centres undefined)	-10.4% (active)
COc1ccc(/C=C(/C(=O)N2CCCC2)c2cc(OC)c(OC)c(OC)c2)cc1N	31.6% (inactive)
CO[C@@H](c1ccccc1Cl)[C@H](C)OC(N)=O	110% (inactive)
O=C(N/N=C/c1ccc([N+](=O)[O-])o1)c1cc([N+](=O)[O-])cc([N+](=O)[O-])c1O	99.8% (inactive)
COc1cc(C2CC(=O)Nc3nc(N)[se]c32)c(OC)c2c1OCO2 (centres undefined)	119% (inactive)
CC(=O)[O][Hg][c]1nc2c(c(=O)n(C)c(=O)n2C)n1C	102% (inactive)
Cc1cc(NC(=O)/C=C/c2ccc([N+](=O)[O-])cc2)ccc1S(=O)(=O)F	87% (inactive)
O=C(NCCNC(=O)c1ccc([As](O)O)cc1)c1ccc([As](O)O)cc1	114% (inactive)
COC1=CC(=O)OC(CCc2ccc3c(c2)OCO3)C1 (centres undefined)	107% (inactive)
CCC1CN1P(=O)(OCCOC)N1CC1CC (centres undefined)	105% (inactive)
NC(=O)SCC(=O)Nc1ccc([As](=O)(O)O)cc1	84% (inactive)
C=CCC1(CC)C(=O)NC(=S)NC1=O	103% (inactive)
S=P(NC1CCCCC1)(N1CC1)N1CC1	76.7% (inactive)
O=[N+]([O-])c1cc([N+](=O)[O-])c(Cl)c(Cl)c1Cl	12.8% (inactive)
O=C(NCc1ccc([N+](=O)[O-])cc1)Nc1ccc(S(=O)(=O)F)cc1	68.9% (inactive)
O=S(=O)(O)c1ccc(-c2ccc([As](=O)(O)O)cc2)cc1	102% (inactive)
O=c1cc[nH]c(=O)o1	93.1% (inactive)
CN1C(=O)NC(=O)C(N=Nc2ccc(Cl)cc2)C1=O (centres undefined)	96.1% (inactive)
Cc1ccc(C(=O)C2CN(C)CCC2(O)c2ccc(C)cc2)cc1 (centres undefined)	99.9% (inactive)
